Data provenance: the Human Domainome abundance scans (Beltran et al. 2025)

B1: Advillin, residues 785 to 819; numbered along this chain, O75366 (parent)
chain: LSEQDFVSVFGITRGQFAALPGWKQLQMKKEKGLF

# Variants of: B1
# assay overview: abundance fitness (aPCA) (normalised: wild type 0, dead -1); higher = more abundant; growth selection in yeast, the domain comes from the species named
# stated conditions: Homo sapiens
quantity: abundance fitness
# answer = number (no unit)

G15P :: -0.413
Q4R :: -0.11
G22T :: 0.005
R14I :: -0.252
K32W :: -0.365

Report abundance fitness for Q16H please.
-0.183

Entry to check: G15Q
0.11

Try K24R next.
-0.159

Try this variant too: A19Y
-0.409

And W23P ?
-0.188

And then L26V , what is it?
0.073

Next variant up: S2M
-0.514
